Where do these numbers come from? They come from patent US8853230B2.

Below: a set of entries, each annotated with reported pIC50.
Biological target: JAK3 (Homo sapiens, UniProt P52333)
Construct: 5 μl of catalytic domain recombinant Kinase enzyme+Tyr peptide substrate (Invitrogen, Calif.)
Sequence (P52333 822-1111 limits assumed): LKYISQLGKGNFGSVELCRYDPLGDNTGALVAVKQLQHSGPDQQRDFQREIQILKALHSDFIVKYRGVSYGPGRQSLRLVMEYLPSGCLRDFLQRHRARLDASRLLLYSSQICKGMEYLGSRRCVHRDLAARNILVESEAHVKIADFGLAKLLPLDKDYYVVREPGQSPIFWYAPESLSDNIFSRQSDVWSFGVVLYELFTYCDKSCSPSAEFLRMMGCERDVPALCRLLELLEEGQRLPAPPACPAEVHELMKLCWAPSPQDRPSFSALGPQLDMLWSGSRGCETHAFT
Assay: Z'-LYTE kinase assay, JAK3 tyrosine phosphorylation activity
Experimental: JAK and TYK2 tyrosine phosphorylation activity is measured using the Z′-LYTE™ Technology developed by Invitrogen Corporation (Carlsbad, Calif.). For JAK1, JAK2 and JAK3 the Z′-LYTE™ Kinase Assay Kit-Tyr6 Peptide (part number PV4122) was used. […] The Z′-LYTE™ biochemical assay employs a fluorescence resonance energy transfer (FRET) coupled-enzyme format and is based on the differential sensitivity of phosphorylated and non-phosphorylated peptides to proteolitic cleavage. […]
pIC50: −log10 of the molar value.
reported-metric: pIC50

[
  {
    "molecule": "CC(=O)Nc1cccc(Nc2ncc(C(N)=O)c(NCc3cccnc3)n2)c1",
    "reported-metric": "pIC50",
    "test-value": "8.00 to 9.00"
  },
  {
    "molecule": "CC(=O)N(c1cccc(Nc2ncc(C(N)=O)c(N[C@H](C)c3ccccc3)n2)c1)C1CC1",
    "reported-metric": "pIC50",
    "test-value": "8.00 to 9.00"
  },
  {
    "molecule": "COc1ccc(Nc2ncc(C(N)=O)c(NCc3cccc(F)c3)n2)cc1N(C)C(=O)N1CCCC1",
    "reported-metric": "pIC50",
    "test-value": "6.00 to 7.00"
  },
  {
    "molecule": "NC(=O)c1cnc(Nc2cccc(NC(=O)N3CCCC3)c2)nc1NCc1ccccc1F",
    "reported-metric": "pIC50",
    "test-value": "8.00 to 9.00"
  },
  {
    "molecule": "NC(=O)c1cnc(Nc2ccc(F)c(NC(=O)N3CCC3)c2)nc1NCc1ccccc1F",
    "reported-metric": "pIC50",
    "test-value": "8.00 to 9.00"
  },
  {
    "molecule": "CC(=O)Nc1cccc(Nc2cc(N[C@H](C)c3ccccc3)c(C(N)=O)cn2)c1",
    "reported-metric": "pIC50",
    "test-value": "7.00 to 8.00"
  },
  {
    "molecule": "NC(=O)c1cnc(Nc2ccc(Cl)c(NC(=O)N3CCC3)c2)nc1NCc1ccccc1",
    "reported-metric": "pIC50",
    "test-value": "8.00 to 9.00"
  },
  {
    "molecule": "CCC(=O)Nc1cccc(Nc2ncc(C(N)=O)c(NCc3ccccc3)n2)c1",
    "reported-metric": "pIC50",
    "test-value": "8.00 to 9.00"
  },
  {
    "molecule": "CNC(=O)c1cnc(Nc2cccc(NC(=O)COC)c2)nc1NC1Cc2ccccc2C1",
    "reported-metric": "pIC50",
    "test-value": "7.00 to 8.00"
  },
  {
    "molecule": "CC(=O)Nc1cccc(Nc2cc(NCc3ccc4c(c3)OCO4)c(C(N)=O)cn2)c1",
    "reported-metric": "pIC50",
    "test-value": "6.00 to 7.00"
  },
  {
    "molecule": "CC(=O)N(C)c1cccc(Nc2ncc(C(N)=O)c(N[C@H](C)c3ccccc3)n2)c1",
    "reported-metric": "pIC50",
    "test-value": "8.00 to 9.00"
  },
  {
    "molecule": "COCC(=O)Nc1cccc(Nc2ncc(C(N)=O)c(N[C@@H](C)c3ccccc3)n2)c1",
    "reported-metric": "pIC50",
    "test-value": "6.00 to 7.00"
  },
  {
    "molecule": "NC(=O)c1cnc(Nc2ccc(Cl)c(NC(=O)N3CCCC3)c2)nc1NCc1cccc(F)c1",
    "reported-metric": "pIC50",
    "test-value": "8.00 to 9.00"
  },
  {
    "molecule": "NC(=O)c1cnc(Nc2cccc(NC(=O)C3CC3)c2)nc1NCc1ccccc1",
    "reported-metric": "pIC50",
    "test-value": "8.00 to 9.00"
  },
  {
    "molecule": "CC(=O)Nc1cccc(Nc2cc(N[C@H]3CCc4ccccc43)c(C(N)=O)cn2)c1",
    "reported-metric": "pIC50",
    "test-value": "7.00 to 8.00"
  },
  {
    "molecule": "CN(C(=O)N1CCCC1)c1cccc(Nc2ncc(C(N)=O)c(NCC3CC3)n2)c1",
    "reported-metric": "pIC50",
    "test-value": "7.00 to 8.00"
  },
  {
    "molecule": "CC(=O)Nc1cccc(Nc2ncc(C(N)=O)c(NC[C@H](C)c3ccccc3)n2)c1",
    "reported-metric": "pIC50",
    "test-value": "7.00 to 8.00"
  },
  {
    "molecule": "C[C@@H](Nc1nc(Nc2ccc(Cl)c(NC(=O)NC3CCC3)c2)ncc1C(N)=O)c1ccccc1",
    "reported-metric": "pIC50",
    "test-value": "6.00 to 7.00"
  },
  {
    "molecule": "NC(=O)c1cnc(Nc2cccc(NC(=O)N3CC[C@@H](O)C3)c2)nc1NCc1ccccc1",
    "reported-metric": "pIC50",
    "test-value": "> 9.00"
  },
  {
    "molecule": "C[C@@H](Nc1nc(Nc2ccc(Cl)c(NC(=O)N3CCCC3)c2)ncc1C(N)=O)c1ccccc1",
    "reported-metric": "pIC50",
    "test-value": "7.00 to 8.00"
  },
  {
    "molecule": "CC(=O)Nc1cc(Nc2ncc(C(N)=O)c(NCc3ccccc3)n2)ccc1C",
    "reported-metric": "pIC50",
    "test-value": "8.00 to 9.00"
  },
  {
    "molecule": "COCC(=O)Nc1cccc(Nc2ncc(C(N)=O)c(NCc3c(F)ccc(F)c3F)n2)c1",
    "reported-metric": "pIC50",
    "test-value": "8.00 to 9.00"
  },
  {
    "molecule": "CC(=O)Nc1cccc(Nc2ncc(C(N)=O)c(NCc3ccc(F)cc3)n2)c1",
    "reported-metric": "pIC50",
    "test-value": "7.00 to 8.00"
  },
  {
    "molecule": "C[C@H]1CCCN1C(=O)Nc1cccc(Nc2ncc(C(N)=O)c(NCc3ccccc3)n2)c1",
    "reported-metric": "pIC50",
    "test-value": "8.00 to 9.00"
  },
  {
    "molecule": "C[C@@H](Nc1nc(Nc2cccc(N(C)C(=O)N3CCCC3)c2)ncc1C(N)=O)c1ccccc1",
    "reported-metric": "pIC50",
    "test-value": "8.00 to 9.00"
  },
  {
    "molecule": "CC(=O)Nc1cccc(Nc2cc(NCC3CCC3)c(C(N)=O)cn2)c1",
    "reported-metric": "pIC50",
    "test-value": "7.00 to 8.00"
  },
  {
    "molecule": "CN(C)C(=O)Nc1cccc(Nc2ncc(C(N)=O)c(NC3CCCC3)n2)c1",
    "reported-metric": "pIC50",
    "test-value": "8.00 to 9.00"
  },
  {
    "molecule": "CC(=O)Nc1cccc(Nc2ncc(C(N)=O)c(NCC3CCN(C(=O)OC(C)(C)C)C3)n2)c1 (stereo not drawn)",
    "reported-metric": "pIC50",
    "test-value": "7.00 to 8.00"
  },
  {
    "molecule": "COCC(=O)N(C)c1cccc(Nc2ncc(C(N)=O)c(NC(C)C)n2)c1",
    "reported-metric": "pIC50",
    "test-value": "7.00 to 8.00"
  },
  {
    "molecule": "CN(C(=O)N1CCCC1)c1cccc(Nc2ncc(C(N)=O)c(NCc3ccccc3)n2)c1",
    "reported-metric": "pIC50",
    "test-value": "8.00 to 9.00"
  },
  {
    "molecule": "CC(=O)Nc1cc(Nc2ncc(C(N)=O)c(Nc3cccc4nsnc34)n2)ccc1OCCN(C)C",
    "reported-metric": "pIC50",
    "test-value": "8.00 to 9.00"
  },
  {
    "molecule": "COCC(=O)Nc1cccc(Nc2ncc(C(N)=O)c(NCC3CC3)n2)c1",
    "reported-metric": "pIC50",
    "test-value": "8.00 to 9.00"
  },
  {
    "molecule": "CC(=O)Nc1cc(Nc2ncc(C(N)=O)c(NCc3ccccc3)n2)ccc1F",
    "reported-metric": "pIC50",
    "test-value": "8.00 to 9.00"
  }
]
